target: Claudin 18.2 (CLDN18.2), expressed on CHOS-CLDN 18.2 / HEK293-CLDN 18.2 / HCC827-CLDN 18.2 cells (human, UniProt P56856-2 1-261); assay: cell-based or functional assay
EXPERIMENTAL_READOUT: Killing percentage, ADCC (PBMC, HEK293-CLDN18.2 cells), 0.064 µg/ml (%)
Supply the numeric figure in %, leaving out any unit text.

BINDER	OBSERVED
QP14371433 (antibody, human IgG1, kappa, V domains shown, Humanized from QP190191; also called QP14331437) VH: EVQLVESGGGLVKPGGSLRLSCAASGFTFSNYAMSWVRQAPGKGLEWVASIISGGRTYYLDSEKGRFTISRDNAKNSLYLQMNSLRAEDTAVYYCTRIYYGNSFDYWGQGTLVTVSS VL: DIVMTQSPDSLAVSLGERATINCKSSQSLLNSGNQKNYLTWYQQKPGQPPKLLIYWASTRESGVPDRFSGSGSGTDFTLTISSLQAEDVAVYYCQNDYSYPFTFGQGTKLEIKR	41.5
QP14451440 (antibody, human IgG1, kappa, V domains shown, Humanized from QP192193; also called QP14401445) VH: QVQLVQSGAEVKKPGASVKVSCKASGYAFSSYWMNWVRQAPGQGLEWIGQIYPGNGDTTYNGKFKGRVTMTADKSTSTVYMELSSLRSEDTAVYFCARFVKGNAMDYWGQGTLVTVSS VL: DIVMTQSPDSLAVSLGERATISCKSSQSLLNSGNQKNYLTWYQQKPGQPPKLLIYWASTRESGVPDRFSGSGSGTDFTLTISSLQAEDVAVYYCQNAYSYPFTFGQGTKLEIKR	42.1
QP14631461 (antibody, human IgG1, kappa, V domains shown, also called QP14611463) VH: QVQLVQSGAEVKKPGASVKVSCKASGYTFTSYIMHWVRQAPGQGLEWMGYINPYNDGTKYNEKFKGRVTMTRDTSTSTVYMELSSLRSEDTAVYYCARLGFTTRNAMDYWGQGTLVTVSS VL: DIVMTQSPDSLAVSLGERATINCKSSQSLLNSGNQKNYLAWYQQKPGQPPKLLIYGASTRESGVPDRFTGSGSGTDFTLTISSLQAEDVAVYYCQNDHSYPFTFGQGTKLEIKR	39.3

Now consider the entry below.
# Killing percentage, ADCC (PBMC, HEK293-CLDN18.2 cells), 0.064 µg/ml of QP024025 (antibody, human IgG1, V domains shown, also called IMAB362; 175D10(IMAB362)) VH: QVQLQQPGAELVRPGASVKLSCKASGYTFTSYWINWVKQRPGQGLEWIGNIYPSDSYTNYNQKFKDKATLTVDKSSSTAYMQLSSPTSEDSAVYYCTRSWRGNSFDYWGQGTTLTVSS VL: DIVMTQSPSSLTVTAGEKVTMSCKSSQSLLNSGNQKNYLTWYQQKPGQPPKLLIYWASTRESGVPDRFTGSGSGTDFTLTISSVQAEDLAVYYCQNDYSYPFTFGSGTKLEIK = 22
